Below, each of the binders is paired with its reported interaction score value.
Target: T1, 4H3427-bN
T1 chain: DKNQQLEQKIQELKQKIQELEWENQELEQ
Test: two-hybrid library CCNG1;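 also: natural log of median RNA to DNA barcode read ratio; higher means stronger binding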
# output: bare number, no unit

// worked examples, interaction score included
>>> value("DEIQQLEQENQELEQKIQELKWEIQELKQ [4H170-bN]")
-0.458
>>> value("DEIQQLEQEIQELKQKNQELEWKIQELKQ [4H118-bN]")
-0.395
>>> value("DEIQQLEQKIQELKQENQELEWEIQELKQ [4H338-bN]")
-0.828
>>> value("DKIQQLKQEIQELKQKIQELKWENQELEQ [4H2667-bN]")
1.56
>>> value("DKNQQLEQEIQELKQKNQELEWEIQELEQ [4H3185-bN]")
-0.99

Attention now shifts to the item below.
// query interaction score value for entry DKIQQLEQKNQELEQEIQELKWEIQELKQ [4H2442-bN]
-0.236
